tested_target: D2 in pig anterior pituitary homogenates (Sus scrofa, UniProt A0ACM8QMZ9)
Sequence (A0ACM8QMZ9 1-443): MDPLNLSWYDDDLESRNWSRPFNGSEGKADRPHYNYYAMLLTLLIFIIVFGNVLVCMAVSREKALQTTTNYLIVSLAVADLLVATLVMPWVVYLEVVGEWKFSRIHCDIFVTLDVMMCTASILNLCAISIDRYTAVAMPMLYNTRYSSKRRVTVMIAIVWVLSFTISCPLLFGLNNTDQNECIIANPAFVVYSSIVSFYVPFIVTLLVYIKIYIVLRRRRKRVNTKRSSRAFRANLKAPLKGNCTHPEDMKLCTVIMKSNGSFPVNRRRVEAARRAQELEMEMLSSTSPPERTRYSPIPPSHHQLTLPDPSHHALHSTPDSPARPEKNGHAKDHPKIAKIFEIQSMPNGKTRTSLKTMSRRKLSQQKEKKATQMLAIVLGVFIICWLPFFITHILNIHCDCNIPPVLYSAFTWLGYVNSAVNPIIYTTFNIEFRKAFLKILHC
Assay type: binding
condition_set: read-out: D2Ki
metric: Ki (µM)
I only need the number, in µM, no unit after it.

Q: Which Ki value is on record for CN1CCN(C2Cc3ccccc3Sc3ccc(Cl)cc32)CC1 (centres unmarked) [Octoclothepin-R] ?
Ans: 0.0135

###

tested_target: human D4 dopamine receptor (Homo sapiens, UniProt P21917, DEL271-302/N396T/P18R)
Sequence (P21917 with tags, fused parts or gaps P18R/DEL271-302/N396T): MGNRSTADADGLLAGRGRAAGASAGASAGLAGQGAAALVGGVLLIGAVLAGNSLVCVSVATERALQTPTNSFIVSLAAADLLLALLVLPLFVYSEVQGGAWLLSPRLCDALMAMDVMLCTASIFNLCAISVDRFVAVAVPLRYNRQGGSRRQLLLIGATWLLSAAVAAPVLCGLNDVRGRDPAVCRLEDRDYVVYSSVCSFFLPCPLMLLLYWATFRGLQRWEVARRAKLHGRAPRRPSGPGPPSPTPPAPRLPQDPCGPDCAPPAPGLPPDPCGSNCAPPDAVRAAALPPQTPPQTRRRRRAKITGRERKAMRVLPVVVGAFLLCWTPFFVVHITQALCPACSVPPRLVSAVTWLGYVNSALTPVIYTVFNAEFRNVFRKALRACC
protocol_notes: [3H]spiperone binding to membranes of COS-7 cells transfected with human D4 receptor construct
condition_set: read-out: D4Ki
metric: pKi
Quick note: pKi means taking -log10 of the concentration in moles per liter.

Q: Please provide the recorded pKi for CC(C)C[C@H]1C(=O)N2CCC[C@H]2[C@]2(O)O[C@](NC(=O)[C@@H]3C=C4c5cccc6[nH]cc(c56)C[C@H]4N(C)C3)(C(C)C)C(=O)N12 , tested on human D4 dopamine receptor (Homo sapiens, UniProt P21917, DEL271-302/N396T/P18R).
Ans: 7.26

Reference source: patent US7053189B2
